# inhibition at 1 µM annotations
# test_system: FGFR4 kinase (Homo sapiens)
# Sequence (P22455 22-802): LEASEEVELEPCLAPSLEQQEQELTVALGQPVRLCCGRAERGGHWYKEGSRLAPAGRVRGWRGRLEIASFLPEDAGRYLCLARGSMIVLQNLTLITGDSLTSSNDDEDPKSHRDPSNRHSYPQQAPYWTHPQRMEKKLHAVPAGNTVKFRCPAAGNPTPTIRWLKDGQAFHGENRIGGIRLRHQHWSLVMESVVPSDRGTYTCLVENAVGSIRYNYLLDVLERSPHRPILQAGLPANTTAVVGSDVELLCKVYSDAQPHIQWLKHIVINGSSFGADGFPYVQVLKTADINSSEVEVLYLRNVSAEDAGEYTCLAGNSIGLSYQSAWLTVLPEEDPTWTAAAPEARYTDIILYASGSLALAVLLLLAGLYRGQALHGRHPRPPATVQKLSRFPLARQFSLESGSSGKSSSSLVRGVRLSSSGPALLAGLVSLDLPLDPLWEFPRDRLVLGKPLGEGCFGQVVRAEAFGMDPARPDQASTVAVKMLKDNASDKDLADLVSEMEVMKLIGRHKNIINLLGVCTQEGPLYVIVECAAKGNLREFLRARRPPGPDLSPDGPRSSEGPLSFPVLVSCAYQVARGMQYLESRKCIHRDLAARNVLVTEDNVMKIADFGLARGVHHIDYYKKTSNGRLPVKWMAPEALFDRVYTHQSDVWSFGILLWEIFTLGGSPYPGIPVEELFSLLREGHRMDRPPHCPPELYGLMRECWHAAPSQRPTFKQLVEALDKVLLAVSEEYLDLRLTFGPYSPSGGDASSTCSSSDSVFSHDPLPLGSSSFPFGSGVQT
# experiment: biochemical
# Format: biochemical
# assay_conditions: read-out: % inhibition against FGFR4 kinase
metric: inhibition at 1 µM (%)

- molecule: "C=CC(=O)Nc1ccccc1C(=O)Nc1ccc(C#CC2CCCCC2)nn1"
  test_system: "FGFR4 kinase (Homo sapiens)"
  quantity_unit: "%"
  recorded_result: 25
- molecule: "C=CC(=O)Nc1ccccc1C(=O)Nc1ccc(C#Cc2cccc3ccccc23)nn1"
  test_system: "FGFR4 kinase (Homo sapiens)"
  quantity_unit: "%"
  recorded_result: 17
- molecule: "C=CC(=O)Nc1ccccc1C(=O)Nc1ccc(CCc2cccc(OC)c2)nn1"
  test_system: "FGFR4 kinase (Homo sapiens)"
  quantity_unit: "%"
  recorded_result: 26
- molecule: "C=CC(=O)Nc1ccccc1C(=O)Nc1cccnn1 [2a, 2-Acrylamido-N-(pyridazin-3-yl)benzamide]"
  test_system: "FGFR4 kinase (Homo sapiens)"
  quantity_unit: "%"
  recorded_result: 21
- molecule: "C=CC(=O)Nc1ccccc1C(=O)Nc1ccc(CCc2cccc(N(C)C)c2)nn1"
  test_system: "FGFR4 kinase (Homo sapiens)"
  quantity_unit: "%"
  recorded_result: 13
- molecule: "C=CC(=O)Nc1ccccc1C(=O)Nc1ccc(C#CCOc2cccc(OC)c2)nn1"
  test_system: "FGFR4 kinase (Homo sapiens)"
  quantity_unit: "%"
  recorded_result: 37
- molecule: "C=CC(=O)Nc1ccccc1C(=O)Nc1cc(C)on1"
  test_system: "FGFR4 kinase (Homo sapiens)"
  quantity_unit: "%"
  recorded_result: 5
- molecule: "C=CC(=O)Nc1ccccc1C(=O)Nc1ncnc2ccccc12"
  test_system: "FGFR4 kinase (Homo sapiens)"
  quantity_unit: "%"
  recorded_result: 0
- molecule: "C=CC(=O)Nc1ccccc1C(=O)Nc1ccccn1 [2b, 2-Acrylamido-N-(pyridin-2-yl)benzamide]"
  test_system: "FGFR4 kinase (Homo sapiens)"
  quantity_unit: "%"
  recorded_result: 9

###

Each entry below carries its reported remaining at 0.5 h, 1 μM.
# experiment: Metabolic stability assay in mouse liver microsomes
# Type: in vitro ADME
# assay_conditions: pH 7
metric: remaining at 0.5 h, 1 μM (%)

- molecule: "C=CC(=O)Nc1ccccc1C(=O)Nc1ccc(C#Cc2ccc(OC)cc2)nn1 [4c]"
  metric: "remaining at 0.5 h, 1 μM"
  recorded_result: 25.2
- molecule: "C=CC(=O)Nc1ccccc1C(=O)Nc1ccc(C#Cc2ccc3c(c2)OCO3)nn1 [4s]"
  metric: "remaining at 0.5 h, 1 μM"
  recorded_result: 53.9

###

Entries annotated with measured inhibition at 1 µM
# test_system: FGFR4 kinase (Homo sapiens)
# experiment: biochemical
# Format: biochemical
# assay_conditions: read-out: % inhibition against FGFR4 kinase

- compound: "C=CC(=O)Nc1ccccc1C(=O)Nc1ccc(C#Cc2cccc(OC)c2)nn1"
  inhibition at 1 µM: "86%"
- compound: "C=CC(=O)Nc1ccccc1C(=O)Nc1ccc(C#CCN(C)C)nn1"
  inhibition at 1 µM: "10%"
- compound: "C=CC(=O)Nc1ccccc1C(=O)Nc1ccc(C#Cc2ccccc2)nn1"
  inhibition at 1 µM: "91%"
- compound: "C=CC(=O)Nc1ccccc1C(=O)Nc1ccncn1 [2e, 2-Acrylamido-N-(pyrimidin-4-yl)benzamide]"
  inhibition at 1 µM: "12%"

Cited source for all entries: paper PMC11044719
